experiment: Peptide degradation assay in purified cytosol from PBMC; type: in vitro ADME; details: human, s9, amount equivalent to endolysosomes (same number of cells), 8 nM peptide in degradation buffer (20 mM HEPES, 1 mM MgCl2, 137 mM K acetate, 1 mM ATP), 37°C, % original peptide remaining by RP-HPLC, representative of two replicates
readout.kind: half-life at 8 nM (min)
The response must be a number in min with no trailing unit.

Param item = CC[C@H](C)[C@H](NC(=O)[C@@H](NC(=O)[C@H](CCC(=O)O)NC(=O)[C@@H]1CCCN1C(=O)[C@H](CO)NC(=O)[C@H](Cc1ccccc1)NC(=O)[C@H](C)NC(=O)[C@@H](N)CCCCN)C(C)C)C(=O)N1CCC[C@H]1C(=O)N[C@@H](CCSC)C(=O)N[C@@H](Cc1ccccc1)C(=O)O ; retrieve measured half-life at 8 nM.
36

* * *

settings: human, cells or culture medium
readout.kind: half-life (min)
Please respond with the number in min and leave the unit unwritten.

So what does the record say about half-life for CC[C@H](C)[C@H](NC(=O)[C@@H](NC(=O)[C@H](CCC(=O)O)NC(=O)[C@@H]1CCCN1C(=O)[C@H](CO)NC(=O)[C@H](Cc1ccccc1)NC(=O)[C@H](C)NC(=O)[C@@H](N)CCCCN)C(C)C)C(=O)N1CCC[C@H]1C(=O)N[C@@H](CCSC)C(=O)N[C@@H](Cc1ccccc1)C(=O)O [B57KF11] ?
8
